recorded.metric: logP

For this compound ( COc1ccc(C2(O)OC(=O)C(c3ccc4c(c3)OCO4)=C2Cc2cc(OC)c(OC)c(OCCOCCOCCOCCOCc3cn(C4OC(CO)C(O)C(O)C4F)nn3)c2)cc1 (stereo unspecified) ), measured logP is -0.4

----------
assay: method code SF-NMR, from DOI: 10.1002/jps.2600751016, PMID: 3795031
recorded.metric: logP
Would you mind answering with just the numeric figure?

Some solved cases for reference:
For this compound ( CCC(O)CCC(F)(F)F (stereo not drawn) ), measured logP is 1.7

For this compound ( CC(CO)CC(F)(F)F (stereo not drawn) ), measured logP is 1.39

Could you now look at the following compound, please?
For this compound ( CC(CCO)C(F)(F)F (stereo not drawn) ), measured logP is 1.37
